Tested on: 60 different human tumor cell lines
Conditions: read-out: LC50; UACC-62 (Melanoma), five dose
Documented CC50 across a set of compounds
Experimental Endpoint: CC50 (µM)

[[record]]
smiles_notation = "C[C@]12CCc3nc(Nc4ccc(O)cc4)sc3C1=CC[C@@H]1[C@@H]2CC[C@]2(C)C(=O)CC[C@@H]12"
experimental_endpoint = "CC50"
meas_value = 9.19

[[record]]
smiles_notation = "C[C@]12CCc3nc(N)sc3C1=CC[C@@H]1[C@@H]2CC[C@]2(C)C(=NNC(N)=O)CC[C@@H]12"
experimental_endpoint = "CC50"
meas_value = 5.98


* * *

Tested on: LOX IMVI
Assay: Melanoma cytotoxicity assay (resazurin)
Format: cell-based
Settings: human, 24 h
Experimental Endpoint: LOX-IMVI (% viability) (%)

[[record]]
smiles_notation = "C[C@]12CC[C@H]3[C@@H](CC=C4c5sc(Nc6ccc(F)cc6)nc5CC[C@@]43C)[C@@H]1CC[C@@H]2O"
unit_label = "%"
meas_value = 12

[[record]]
smiles_notation = "C[C@]12CC[C@H]3[C@@H](CC=C4c5sc(Nc6cccc(C(=O)O)c6)nc5CC[C@@]43C)[C@@H]1CC[C@@H]2O"
unit_label = "%"
meas_value = 89

[[record]]
smiles_notation = "C[C@]12CC[C@H]3[C@@H](CC=C4c5sc(NCCc6ccccc6)nc5CC[C@@]43C)[C@@H]1CC[C@@H]2O"
unit_label = "%"
meas_value = 10

[[record]]
smiles_notation = "CNc1nc2c(s1)C1=CC[C@H]3[C@@H]4CC[C@H](O)[C@@]4(C)CC[C@@H]3[C@@]1(C)CC2"
unit_label = "%"
meas_value = 14

[[record]]
smiles_notation = "C[C@]12CC[C@H]3[C@@H](CC=C4c5sc(Nc6ccccc6[N+](=O)[O-])nc5CC[C@@]43C)[C@@H]1CC[C@@H]2O"
unit_label = "%"
meas_value = 67

[[record]]
smiles_notation = "CCCCNc1nc2c(s1)C1=CC[C@H]3[C@@H]4CC[C@H](O)[C@@]4(C)CC[C@@H]3[C@@]1(C)CC2"
unit_label = "%"
meas_value = 2

